Biological target: c-kit mutant D816V (Homo sapiens, UniProt P10721, D816V/DEL694-753)
Construct: residues 551-934, kinase insertion domain residues 694-753 deleted; 6x-histidine (N); made in house; host or cells: E. coli Arctic Express (DE3) RIL (Stratagene)
Sequence (P10721 with tags, fused parts or gaps DEL694-753/D816V): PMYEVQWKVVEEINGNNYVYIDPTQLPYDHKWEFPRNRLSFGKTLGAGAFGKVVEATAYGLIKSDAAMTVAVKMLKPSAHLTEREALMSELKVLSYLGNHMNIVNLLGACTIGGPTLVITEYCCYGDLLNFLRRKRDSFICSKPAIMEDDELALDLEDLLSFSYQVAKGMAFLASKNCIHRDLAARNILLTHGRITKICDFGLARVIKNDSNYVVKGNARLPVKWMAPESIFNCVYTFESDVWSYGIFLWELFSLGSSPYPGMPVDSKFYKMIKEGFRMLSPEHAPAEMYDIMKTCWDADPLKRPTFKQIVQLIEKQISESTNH
Experiment: c-Kit mutant D816V biochemical assay, AlphaScreen
Settings: c-kit D816V biochemical inhibitory activity; read-out: Biochemical activity (IC50 μM) Kit D816V
Protocol: Compounds to be tested were dissolved in DMSO to a concentration of 20 mM. These were diluted 30 μl into 120 μl of DMSO (4 mM) and 1 μl was added to an assay plate. These were then serially diluted 1:3 (50 μl to 100 μl DMSO) for a total of 8 points. […] The samples were incubated for 60 minutes at room temperature and the signal per well was read on EnVision reader. […]
READOUT LABEL: IC50

Answered examples (5):
SMILES: CCCS(=O)(=O)Nc1ccc(-c2ncnc3cc(OC)c(OC)cc23)c(F)c1
EXPERIMENTAL VALUE: 0.0001 to 1 µM

SMILES: NS(=O)(=O)c1cccc(-c2cc3c(N4CCN(C(=O)NCc5ccc(F)cc5)CC4)ncnc3[nH]2)c1
EXPERIMENTAL VALUE: 0.0001 to 1 µM

SMILES: Cc1cc2c(-c3ccc(NS(=O)(=O)c4ccc(C)s4)cc3)ncnc2[nH]1
EXPERIMENTAL VALUE: 1 to 10 µM

SMILES: C[C@H](NC(=O)N1CCN(c2ncnc3[nH]c(-c4ccc(C#N)cc4)cc23)CC1(C)C)c1cccc(OC(F)F)c1
EXPERIMENTAL VALUE: 0.0001 to 1 µM

SMILES: COc1ccc([C@@H](C)NC(=O)N2CCN(c3ncnc4[nH]c(-c5ccc(F)cc5)cc34)CC2)cc1
EXPERIMENTAL VALUE: 10 to 200 µM

Entry COc1cccc(CNC(=O)N2CC3CCC(C2)N3c2ncnc3cc(-c4ccc(F)cc4)sc23)c1 — recorded IC50 = 1 to 10 µM

Entry Cc1nn(C)cc1-c1cc2ncnc(N3CCN(C(=O)N[C@@H](C)c4cccc(Cl)c4)[C@H](C)C3)c2s1 — recorded IC50 = 0.0001 to 1 µM

Entry COc1cc(-c2cc3c(N4CCC(NS(=O)(=O)c5ccc(Cl)cc5)CC4)ncnc3[nH]2)ccn1 — recorded IC50 = 0.0001 to 1 µM

Hey, just so you know, these numbers are from patent US10227357B2.
